# experiment notes: inhibition of PAO1 biofilm formation – strain PAO1, LB-PBS medium, absorbance 600 nm, primary screen (AID 1176); note: test concentration not given here
# conditions used: P. aeruginosa PAO1 growth/biofilm, A600, 12 h; higher = more signal
Activity calls are given as the source filed them. The rule behind the calls is not given here.
Each entry below carries its reported z-score.

// below: answered compounds
compound: CCOC(=O)C1=CCC(c2cc3ccccc3[nH]2)N(CCN2CC(C(=O)OCC)=CCC2c2cc3ccccc3[nH]2)C1 (configuration not stated)
z-score: 0.878 (inactive)
--
compound: COC(=O)C(CC#Cc1ccc2c(c1)[C@]1(C(=O)N2)[C@H](C(=O)NC[C@H](O)c2ccccc2)[C@H]2C(=O)O[C@H](c3ccccc3)[C@H](c3ccccc3)N2[C@@H]1c1ccccc1OCCO)C(=O)OC
z-score: 1.7 (inactive)
--
compound: CCCCN1CC=CC23O[C@@H]4/C=C\CCCOC(=O)C4[C@H]2C(=O)N(C(CO)C(C)C)[C@@H]3C1=O (some centres not stated)
z-score: -0.0432 (inactive)
--
compound: COC(=O)C1=CC(CCCO)=CC(c2cccs2)N(Cc2cc3c(cc2Br)OCO3)C=C1C(=O)OC (configuration not stated)
z-score: 0.173 (inactive)
--
compound: C=C(CCCC)/C(=C/C[C@H](OC(=O)c1ccncc1)c1ccc(OCCO)cc1)c1cnc2ccccc2c1
z-score: 0.391 (inactive)
--
compound: COc1cc(C(O)C2C=CC3C(=O)N(c4ccccc4)C(=O)C3N2Nc2ccccc2)cc(OC)c1OC (configuration not stated)
z-score: 1.11 (inactive)

Look at this compound and give its reported z-score. `CCCN1C(=O)[C@]2(CCC(=O)OC(C)(C)C)N=C(c3ccc(OCCCO)cc3)O[C@@H]2c2ccccc21` 3.33 (inactive)

* * *

# test system: Neurogenic locus notch homolog protein 3 (Homo sapiens) (UniProt Q9UM47)
# Sequence (Q9UM47 whole entry, looked up): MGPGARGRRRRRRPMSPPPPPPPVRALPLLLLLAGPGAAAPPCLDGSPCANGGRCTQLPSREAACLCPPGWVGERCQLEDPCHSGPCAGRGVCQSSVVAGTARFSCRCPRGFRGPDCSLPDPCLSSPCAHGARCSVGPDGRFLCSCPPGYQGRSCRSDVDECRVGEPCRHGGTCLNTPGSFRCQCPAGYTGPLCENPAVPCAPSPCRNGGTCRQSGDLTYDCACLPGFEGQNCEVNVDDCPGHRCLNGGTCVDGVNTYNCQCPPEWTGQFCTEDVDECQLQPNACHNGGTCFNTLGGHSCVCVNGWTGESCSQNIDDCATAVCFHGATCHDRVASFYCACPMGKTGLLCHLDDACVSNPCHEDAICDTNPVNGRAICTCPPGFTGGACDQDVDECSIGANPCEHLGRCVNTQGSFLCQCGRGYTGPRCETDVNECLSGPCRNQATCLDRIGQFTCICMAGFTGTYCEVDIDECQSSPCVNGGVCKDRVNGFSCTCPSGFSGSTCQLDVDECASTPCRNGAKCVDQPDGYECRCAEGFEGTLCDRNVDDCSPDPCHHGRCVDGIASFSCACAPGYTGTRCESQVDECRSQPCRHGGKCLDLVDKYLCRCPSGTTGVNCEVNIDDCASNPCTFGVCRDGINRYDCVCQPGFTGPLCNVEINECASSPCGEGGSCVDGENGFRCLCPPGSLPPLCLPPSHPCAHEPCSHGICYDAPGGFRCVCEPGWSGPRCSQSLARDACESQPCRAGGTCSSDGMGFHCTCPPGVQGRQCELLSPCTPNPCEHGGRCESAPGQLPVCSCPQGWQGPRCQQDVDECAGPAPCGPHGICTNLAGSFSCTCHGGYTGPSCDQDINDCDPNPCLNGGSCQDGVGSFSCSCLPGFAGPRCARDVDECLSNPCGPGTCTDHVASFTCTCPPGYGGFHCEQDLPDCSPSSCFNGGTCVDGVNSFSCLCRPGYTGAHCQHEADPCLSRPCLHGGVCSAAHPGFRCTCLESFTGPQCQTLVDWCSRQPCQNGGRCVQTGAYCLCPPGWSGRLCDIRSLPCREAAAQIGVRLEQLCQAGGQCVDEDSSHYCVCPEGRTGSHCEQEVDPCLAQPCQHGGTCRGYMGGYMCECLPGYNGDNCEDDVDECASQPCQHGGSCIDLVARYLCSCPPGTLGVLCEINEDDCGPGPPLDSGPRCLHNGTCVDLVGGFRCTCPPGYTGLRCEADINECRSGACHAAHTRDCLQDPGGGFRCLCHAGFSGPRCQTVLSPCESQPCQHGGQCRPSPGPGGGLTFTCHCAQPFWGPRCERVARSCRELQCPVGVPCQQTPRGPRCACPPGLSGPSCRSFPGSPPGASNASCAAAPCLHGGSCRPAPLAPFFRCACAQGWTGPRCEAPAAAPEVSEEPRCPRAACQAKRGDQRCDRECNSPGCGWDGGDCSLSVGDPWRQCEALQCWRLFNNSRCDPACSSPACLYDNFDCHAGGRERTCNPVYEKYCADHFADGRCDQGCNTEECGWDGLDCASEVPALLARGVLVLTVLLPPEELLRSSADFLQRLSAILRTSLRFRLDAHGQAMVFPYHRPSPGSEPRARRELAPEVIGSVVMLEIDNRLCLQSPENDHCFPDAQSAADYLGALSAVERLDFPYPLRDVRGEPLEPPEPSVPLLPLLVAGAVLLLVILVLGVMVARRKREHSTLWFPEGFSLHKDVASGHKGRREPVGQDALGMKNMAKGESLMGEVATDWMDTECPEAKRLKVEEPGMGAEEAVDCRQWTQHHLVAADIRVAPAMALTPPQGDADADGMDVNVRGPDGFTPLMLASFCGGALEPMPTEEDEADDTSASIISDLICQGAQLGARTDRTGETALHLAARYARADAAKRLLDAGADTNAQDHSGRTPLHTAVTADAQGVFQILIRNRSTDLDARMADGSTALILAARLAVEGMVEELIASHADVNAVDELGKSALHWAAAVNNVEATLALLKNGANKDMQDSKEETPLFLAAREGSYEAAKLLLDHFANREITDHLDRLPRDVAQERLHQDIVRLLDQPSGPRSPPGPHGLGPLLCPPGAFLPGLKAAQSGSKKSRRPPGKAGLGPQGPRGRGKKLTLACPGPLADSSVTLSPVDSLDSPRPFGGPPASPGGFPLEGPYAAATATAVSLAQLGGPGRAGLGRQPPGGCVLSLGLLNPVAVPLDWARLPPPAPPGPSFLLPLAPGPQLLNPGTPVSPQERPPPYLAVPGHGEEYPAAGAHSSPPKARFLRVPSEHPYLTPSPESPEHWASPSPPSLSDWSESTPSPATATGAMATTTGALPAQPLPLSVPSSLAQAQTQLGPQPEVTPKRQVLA
# experiment notes: small molecules binding NOTCH3 protein – biochemical, 635/667 nm fluorescence, primary screen (AID 1096)
# conditions used: small-molecule microarray, 635 nm fluorescence, higher = more signal
# cutoff -0.1 applies to composite z-score; >= gives YES, < gives NO

Example results:
smiles text: COCCOC(=O)N1C(=O)[C@@]2(c3cc(C#Cc4ccc(OC)cc4)ccc31)[C@H](c1ccc(OCCO)cc1)N1[C@H](c3ccccc3)[C@H](c3ccccc3)OC(=O)[C@H]1[C@@H]2C(=O)NC[C@H](O)c1ccccc1
test system: Neurogenic locus notch homolog protein 3 (Homo sapiens) (UniProt Q9UM47)
label value: YES
//
smiles text: Cc1ccc(S[C@]2(C(=O)NCCCN(C)C)CC(=O)N(C3Cc4ccccc4C3)[C@@H]2c2ccc(CO)cc2I)cc1
test system: Neurogenic locus notch homolog protein 3 (Homo sapiens) (UniProt Q9UM47)
label value: NO
//
smiles text: Cc1ccc(S[C@]2(C(=O)NC(C)C)CC(=O)N(C3CCCCC3)[C@@H]2c2ccc(CO)cc2I)cc1
test system: Neurogenic locus notch homolog protein 3 (Homo sapiens) (UniProt Q9UM47)
label value: YES
//
smiles text: COCCOC(=O)N1C(=O)[C@@]2(c3cc(C#CCCO)ccc31)[C@H](C(N)=O)[C@H]1C(=O)O[C@H](c3ccccc3)[C@H](c3ccccc3)N1[C@@H]2c1ccccc1OCCO
test system: Neurogenic locus notch homolog protein 3 (Homo sapiens) (UniProt Q9UM47)
label value: YES
//
smiles text: NC(=O)NCC#Cc1ccc2c(c1)[C@]1(C(=O)N2)[C@H](c2ccc(OCCO)cc2)N2[C@H](c3ccccc3)[C@H](c3ccccc3)OC(=O)[C@H]2[C@@H]1C(=O)NC[C@H](O)c1ccccc1
test system: Neurogenic locus notch homolog protein 3 (Homo sapiens) (UniProt Q9UM47)
label value: NO

Now for another entry.
Quick check: does `COC(=O)[C@@]1(Cc2ccc(OC)cc2)[C@H]2c3cc(C(=O)N4CCCC4)n(CCn4cc([N+](=O)[O-])nc4C)c3C[C@H]2CN1C(=O)c1ccccc1` have composite z-score greater than or equal to -0.1? YES

* * *

# experiment notes: probe aInhba binding on compound microarray – biochemical, small-molecule microarray, 635/667 nm fluorescence, primary screen (AID 1148);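 note: score merges 667nm spot fluorescence with signal-to-noise for antibody binding to printed compounds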
# conditions used: higher = more signal
Each entry below carries its reported composite z-score.

compound: COc1ccc([Si](C)(C)[C@H]2[C@H](CC(=O)N3Cc4ccccc4C[C@H]3CO)O[C@@]3(C(=O)N(c4ccccc4)c4ccccc43)[C@@H]2C)cc1
measured parameter: composite z-score
observed measurement: 0.0342

compound: CC(C)(C)OC(=O)CC[C@]1(C(=O)NCC(O)CO)N=C(c2ccc(OCCCO)cc2)O[C@H]1c1ccccc1N=[N+]=[N-] (some centres not stated)
measured parameter: composite z-score
observed measurement: 0.32

compound: O=C(NCCN1CCOCC1)[C@@H]1c2ccccc2C(=O)N(Cc2ccccc2C(F)(F)F)[C@H]1c1ccc(CO)cc1
measured parameter: composite z-score
observed measurement: -0.224

compound: CC(C)N1C(=O)c2ccccc2[C@@H](C(=O)NCC(F)(F)F)[C@@H]1c1ccc(CO)cc1
measured parameter: composite z-score
observed measurement: -0.152

compound: Cc1ccc(N2C(=O)c3ccccc3[C@](C)(C(=O)NCCCN(C)C)[C@@H]2c2ccc(CO)cc2)nc1
measured parameter: composite z-score
observed measurement: -0.0983

Look at this compound and give its reported composite z-score. O=C(NCC(O)CO)[C@@]1(CCS(=O)(=O)c2ccccc2)N=C(c2ccc(OCCCO)cc2)O[C@H]1c1ccccc1 (some centres not stated) 0.212

Look at this compound and give its reported composite z-score. `COc1ccc([Si](C)(C)[C@@H]2[C@@H](CC(=O)N3CCC[C@H]3CO)O[C@]3(C(=O)N(Cc4ccc(N5CCOC5=O)cc4)c4ccccc43)[C@H]2C)cc1` -0.024

* * *

# experiment notes: basal CRE-LacZ reporter activity in PC12 – cell-based, unstimulated, primary screen (AID 1145)
# conditions used: no forskolin, luminescence, 4.5 h, higher = more signal, called active from +8 up or from −8 down
Each entry below carries its reported z-score.
Enter the number alone.

Look at this compound and give its reported z-score. `CO[C@H]1O[C@H](CO)[C@@H](OC(=O)Nc2ccccc2)[C@H](OC(=O)Nc2ccccc2)[C@H]1OC(=O)Nc1ccccc1` 1.04

Look at this compound and give its reported z-score. CC(C)=CCCC=C(C)C(O)C1C=CC2C(=O)N(c3ccccc3)C(=O)C2N1Nc1ccc(C#N)cc1 (centres undefined) 1.39

Look at this compound and give its reported z-score. COC(=O)C1=CC(CCCO)=CC(c2cccs2)N(Cc2cc3c(cc2Br)OCO3)C=C1C(=O)OC (centres undefined) 0.326

Look at this compound and give its reported z-score. `CC(C)NC(=O)[C@@]1(C)c2ccccc2C(=O)N(Cc2ccccc2)[C@H]1c1ccc(CO)cc1` -0.592

* * *

# experiment notes: resazurin metabolic signal in HepG2 cells – cell-based, resazurin fluorescence, 24 h, PK04 Diversity Set, profiling panel (AID 1172); note: test concentration not given here
# conditions used: HepG2 viability, higher = more signal
Field 'label' (enum: 1 / 0). Set to 1 when z-score is strictly under -0.5; else 0.

Example results:
molecule: CN(C)C(=O)[C@@]1(Cc2ccccc2CN=[N+]=[N-])COC(c2ccc(OCCCO)cc2)=N1
label value: 0
--
molecule: C=CC[C@@]1(C(=O)OC)N=C(c2ccc(OCCCO)cc2)O[C@@H]1c1ccccc1N=[N+]=[N-]
label value: 0
--
molecule: Cc1ccc(S[C@]2(C(=O)NCCCN(C)C)CC(=O)N(C3Cc4ccccc4C3)[C@@H]2c2ccc(CO)cc2I)cc1
label value: 1
--
molecule: COCCOC(=O)N1C(=O)[C@@]2(c3ccccc31)[C@H](C(=O)N1CCN(c3ncccn3)CC1)[C@H]1C(=O)O[C@H](c3ccccc3)[C@H](c3ccccc3)N1[C@@H]2c1ccccc1OCCO
label value: 0
--
molecule: COC(=O)[C@@]1(Cc2ccc(F)cc2)[C@H]2c3cc(C(=O)N(C)C)n(CCc4ccc(O)c(O)c4)c3C[C@H]2CN1C(=O)c1ccccc1
label value: 0
--
molecule: CC(C)c1nc2cc(Br)ccc2c(=O)o1
label value: 0
--
molecule: CN(C)CCCNC(=O)[C@@H]1c2ccccc2C(=O)N(Cc2ccccc2C(F)(F)F)[C@H]1c1ccc(CO)cc1
label value: 0

Say whether its z-score is strictly beneath -0.5. Entry: N#Cc1ccc(NN2C(C(O)C3CC=CCC3)C=CC3C(=O)N(c4ccccc4)C(=O)C32)cc1 (stereo not drawn) 1

* * *

# experiment notes: S. pombe growth modifiers, basal conditions – strain 972, OD600, 24 h, no modulator, primary screen (AID 1090);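 note: basal condition with compound alone and no growth modifier present; test concentration not given here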
# conditions used: S. pombe 972 growth, higher = more signal, called active from +8 up or from −8 down
measured parameter: z-score
Enter the number alone.

compound: CC(C)C(O)C1C=CC2C(=O)NC(=O)C2N1Nc1ccccn1 (centres undefined)
observed measurement: 1.68

compound: C=C1C(=O)C=C2CN(C(=O)c3ccccc3)[C@@](Cc3ccc(OC)cc3)(C(=O)OC)[C@@H]12
observed measurement: 1.85

compound: COc1ccc(C(=O)Nc2ccc(CN3C(=O)[C@@]4(O[C@@H](CCn5cc(CCO)nn5)[C@H]([Si](C)(C)c5ccc(OC)cc5)[C@H]4C)c4ccccc43)cc2)cc1
observed measurement: -6.58

Let us examine a further case.
Look at this compound and give its reported z-score. `CCOC(=O)C1=CC[C@@H](c2ccccc2)N(S(=O)(=O)c2ccc(C)cc2)[C@H]1c1ccccc1I` 0.666

Cited source: PubChem BioAssay
